- SYSTEM_NAME: UniProt P29371
- Sequence (P29371 whole entry): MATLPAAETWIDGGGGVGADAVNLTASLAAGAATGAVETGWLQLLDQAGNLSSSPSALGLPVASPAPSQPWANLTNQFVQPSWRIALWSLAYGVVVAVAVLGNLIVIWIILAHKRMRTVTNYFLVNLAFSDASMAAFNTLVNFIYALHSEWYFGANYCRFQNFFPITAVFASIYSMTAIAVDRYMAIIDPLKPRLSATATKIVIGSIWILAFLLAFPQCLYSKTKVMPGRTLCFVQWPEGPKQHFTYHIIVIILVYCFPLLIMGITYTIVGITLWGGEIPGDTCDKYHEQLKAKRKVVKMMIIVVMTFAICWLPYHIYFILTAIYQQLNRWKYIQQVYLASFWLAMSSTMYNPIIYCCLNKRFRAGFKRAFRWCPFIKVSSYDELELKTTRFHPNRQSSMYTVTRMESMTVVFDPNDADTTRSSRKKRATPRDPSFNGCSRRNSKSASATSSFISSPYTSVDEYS
- PROCEDURE_SUMMARY: Displacement of [3H]SR 142801 from human recombinant NK3 receptor expressed in CHO cells

>  <SMILES_REPRESENTATION>
C/C(=N\OC(=O)Nc1ccccc1)c1cccc(-c2cccs2)c1

>  <SYSTEM_NAME>
UniProt P29371

>  <IC50>
> 10 µM

$$$$
